The compounds listed here are annotated with their pIC50.
- Tested on: HeLa
- Method: Cytotoxicity against human HeLa cells after 4 days by Coulter counter analysis
- Format: functional, cell-based
- Condition: 96 h
# pIC50 = -log10(concentration in molar units)

Please review the following examples before continuing.
[[record]]
smiles_repr = "Nc1ccc(/C=C2\\SC(=O)N(Cc3cccc(Cl)c3)C2=O)cc1"
target_or_test_system = "HeLa"
property = "pIC50"
value = 4.62

[[record]]
smiles_repr = "CC(C)(C)c1ccc(CN2C(=O)S/C(=C\\c3cccc(N)c3)C2=O)cc1"
target_or_test_system = "HeLa"
property = "pIC50"
value = 3.84


### Prompt pIC50 for "C=C(Br)C(=O)Nc1ccc(/C=C2\SC(=O)N(CC)C2=O)cc1" ?
### Response 5.85

### Prompt pIC50 for "C=C(Br)C(=O)Nc1cccc(/C=C2\SC(=O)N(Cc3cccc(Cl)c3)C2=O)c1" ?
### Response 5.60

### Prompt pIC50 for "C=C(Br)C(=O)Nc1ccc(/C=C2\SC(=O)N(CCc3ccccc3)C2=O)cc1" ?
### Response 5.35

### Prompt pIC50 for "C=C(Br)C(=O)Nc1cccc(/C=C2\SC(=O)N(Cc3ccc(C(C)(C)C)cc3)C2=O)c1" ?
### Response 5.55

### Prompt pIC50 for "C=C(Br)C(=O)Nc1ccc(/C=C2\SC(=O)N(Cc3ccc(Cl)cc3)C2=O)cc1" ?
### Response 5.64

### Prompt pIC50 for "C=C(Br)C(=O)Nc1ccc(/C=C2\SC(=O)N(Cc3ccc(C(F)(F)F)cc3)C2=O)cc1" ?
### Response 4.89

### Prompt pIC50 for "CCN1C(=O)S/C(=C\c2ccc(N)cc2)C1=O" ?
### Response 3.97

###

- Test system: U-937
- Method: Cytotoxicity against human U937 cells after 4 hrs by MTT assay
- Assay type: functional, cell-based
- Condition: U-937, 4 h
Property: IC50 (nM)
Provide only the numeric value, understood in nM.

[[record]]
smiles_repr = "C=C(Br)C(=O)Nc1cccc(/C=C2\\SC(=O)N(Cc3ccc(C(F)(F)F)cc3)C2=O)c1"
target_or_test_system = "U-937"
value_unit = "nM"
value = 500

[[record]]
smiles_repr = "C=C(Br)C(=O)Nc1cccc(/C=C2\\SC(=O)N(Cc3ccccc3)C2=O)c1"
target_or_test_system = "U-937"
value_unit = "nM"
value = 620


Now, please, on to the next molecule.
### Prompt API: value(readout=IC50, system=U-937) for record "C=C(Br)C(=O)Nc1cccc(/C=C2\SC(=O)N(Cc3ccc(F)cc3)C2=O)c1"
### Response 530

###

- Tested on: MOLT-3
- Method: Cytotoxicity against human MOLT3 cells after 4 hrs by MTT assay
- Format: functional, cell-based
- Condition: MOLT-3, 4 h
The compounds listed here are annotated with their IC50.
Provide only the numeric value, understood in nM.

Please review the following examples before continuing.
[[record]]
smiles_repr = "C=C(Br)C(=O)Nc1cccc(/C=C2\\SC(=O)N(Cc3ccc(C(F)(F)F)cc3)C2=O)c1"
target_or_test_system = "MOLT-3"
property = "IC50"
value = 710

[[record]]
smiles_repr = "C=C(Br)C(=O)Nc1cccc(/C=C2\\SC(=O)N(Cc3ccc(F)cc3)C2=O)c1"
target_or_test_system = "MOLT-3"
property = "IC50"
value = 640


Now, please, on to the next compound.
### Prompt IC50 for "C=C(Br)C(=O)Nc1cccc(/C=C2\SC(=O)N(Cc3ccccc3)C2=O)c1" ?
### Response 600
